The entries below are paired with their reported pKa.
condition-set: acidic group
recorded-endpoint: pKa

compound=CCOC(=O)C[N+](=O)[O-] recorded_endpoint=pKa meas_value=5.82
compound=NS(=O)(=O)c1cccc([N+](=O)[O-])c1 recorded_endpoint=pKa meas_value=9.19
compound=CNc1nnn[nH]1 recorded_endpoint=pKa meas_value=6.06
compound=Oc1ccc2cnccc2c1 recorded_endpoint=pKa meas_value=9.15
compound="O=C(O)C(c1ccc(-c2ccccc2)cc1)C(O)Cc1ccccc1 (centres undefined)" recorded_endpoint=pKa meas_value=4.29
compound=COc1cc(C)ccc1C(=O)O recorded_endpoint=pKa meas_value=4.38
compound=C/C(O)=C/C(=O)O recorded_endpoint=pKa meas_value=4.05
compound=[O-]c1cc(O)nc[nH+]1 recorded_endpoint=pKa meas_value=5.4
compound=S=C(NC(=S)c1ccccc1)Nc1ccccc1 recorded_endpoint=pKa meas_value=10.7
compound=NC(=O)CC(=O)c1ccncc1 recorded_endpoint=pKa meas_value=7.91
compound=O=Cc1cccc(B(O)O)c1 recorded_endpoint=pKa meas_value=7.8
compound=S=CNc1ccc(Cl)cc1 recorded_endpoint=pKa meas_value=10.8
compound=Cc1ccc(O)c(Cc2cc(C)cc([N+](=O)[O-])c2O)c1 recorded_endpoint=pKa meas_value=6.87
compound=O=C(O)CS/C=C/c1ccccc1 recorded_endpoint=pKa meas_value=3.5
compound=O=C1CC(=O)NC(=S)N1 recorded_endpoint=pKa meas_value=4.15
compound=Cc1nc(Cc2ccccc2)c(O)o1 recorded_endpoint=pKa meas_value=10.3
compound=O=C(O)CCc1cccs1 recorded_endpoint=pKa meas_value=4.34
compound=CC/C([N+](=O)[O-])=[N+](/[O-])O recorded_endpoint=pKa meas_value=4.1
compound=CC(=O)[C@H]1C[C@@H](CC(=O)O)C1(C)C recorded_endpoint=pKa meas_value=4.82
compound=O=C1O[C@@H]([C@H](O)[C@@H](O)[C@@H](O)CO)C(O)=C1O recorded_endpoint=pKa meas_value=4.3
compound=O=C(O)[C@@H]1CC[C@H](C(=O)[O-])[Se]1 recorded_endpoint=pKa meas_value=4.55
compound="Brc1ccc2c(c1)-c1ccccc1C2[P+](c1ccccc1)(c1ccccc1)c1ccccc1 (centres undefined)" recorded_endpoint=pKa meas_value=7.53
compound=CN(C)C(=O)n1nc(C(C)(C)C)nc1SCC(=O)O recorded_endpoint=pKa meas_value=3.49
compound=Cc1c(Cl)ccc2c1nnn2O recorded_endpoint=pKa meas_value=4.09
compound=CCc1cc(C(=O)O)cs1 recorded_endpoint=pKa meas_value=4.19
compound=Fc1ccc(NC(=S)c2ccccc2)cc1 recorded_endpoint=pKa meas_value=10.8
compound=O=C([O-])CN(CC(=O)O)Cc1cc(Cl)cc(C[NH+](CC(=O)[O-])CC(=O)O)c1O recorded_endpoint=pKa meas_value=2.2
compound=O=C(/C(=N\O)c1ccccc1)c1ccccc1 recorded_endpoint=pKa meas_value=10
compound=CCc1cc2c(C)cc(=O)oc2cc1O recorded_endpoint=pKa meas_value=8.01

###

condition-set: basic group
recorded-endpoint: pKa

molecular_string=N#Cc1ccccn1 recorded_endpoint=pKa meas_value=-0.26
molecular_string=CC(=O)NN=C1CCN(C)CC1 recorded_endpoint=pKa meas_value=7.45
molecular_string=C[NH+](C)CCCCN1C=Nc2cccc3cccc1c23 recorded_endpoint=pKa meas_value=5.3
molecular_string=c1ccc(NCC[NH+]2CCCCC2)cc1 recorded_endpoint=pKa meas_value=2.8
molecular_string=O=Cc1ccc2ccccc2n1 recorded_endpoint=pKa meas_value=3.1
molecular_string=Nc1nc[nH]n1 recorded_endpoint=pKa meas_value=4.3
molecular_string=c1ccc2c(c1)C1CCN2CC1 recorded_endpoint=pKa meas_value=7.79
molecular_string=Nc1cc([N+](=O)[O-])cc2ccccc12 recorded_endpoint=pKa meas_value=2.24
molecular_string=COc1nc(N)c2[nH]cnc2n1 recorded_endpoint=pKa meas_value=3.7
molecular_string=NCCNCCc1ccccc1 recorded_endpoint=pKa meas_value=9.44
molecular_string=Cn1c(=S)ccc2ccccc21 recorded_endpoint=pKa meas_value=-1.6
molecular_string=CCc1ccc(C)nn1 recorded_endpoint=pKa meas_value=4.17
molecular_string=CN1CCC(NN)CC1 recorded_endpoint=pKa meas_value=8.85
molecular_string=C[Si](C)(CCN)O[Si](C)(C)CCN recorded_endpoint=pKa meas_value=10.7
molecular_string=COc1ccc([N+](=O)[O-])cc1C(=O)N[C@@H]1C[C@H]2CC[C@@H](C1)N2Cc1ccccc1 recorded_endpoint=pKa meas_value=8.7

###

condition-set: basic group
Where a SMILES comes first, the peptide text is derived from it.
Reported pKa values are given for each entry in this list.
recorded-endpoint: pKa

compound=CCN(CC)NC recorded_endpoint=pKa meas_value=7.14
compound=Nc1cc(C[NH3+])ccc1Cl recorded_endpoint=pKa meas_value=3.71
compound=NCCCC(=O)[O-] recorded_endpoint=pKa meas_value=10.5
compound="CC(CN)C(=O)[O-] (configuration not stated)" recorded_endpoint=pKa meas_value=9.91
compound=Cc1ccc(C(=N)c2ccccc2)c(C)c1 recorded_endpoint=pKa meas_value=6.79
compound=Nc1nc2ccccc2[nH]1 recorded_endpoint=pKa meas_value=7.49
compound=O=[N+]([O-])c1ccc(-n2cnnn2)cc1 recorded_endpoint=pKa meas_value=-3.92
compound=CN1CCCC[C@H]1c1cccnc1 recorded_endpoint=pKa meas_value=5.42
compound="O=[N+]([O-])c1cccc(C2NCCS2)c1 (configuration not stated)" recorded_endpoint=pKa meas_value=4.63
compound=NC(C[NH3+])C[NH3+] recorded_endpoint=pKa meas_value=3.72
compound=Oc1cccc2ccnnc12 recorded_endpoint=pKa meas_value=2.72
compound="CC1CCN(C(C)C=C(c2cccs2)c2cccs2)CC1 (configuration not stated)" recorded_endpoint=pKa meas_value=8.2
compound=Nc1ccc(S(=O)(=O)Nc2ccccn2)cc1 recorded_endpoint=pKa meas_value=2.58
compound=CCN(CC#N)CC#N recorded_endpoint=pKa meas_value=3.98
compound=OCCc1cccnc1 recorded_endpoint=pKa meas_value=5.38
compound=N[C@@H]1C[C@@H]2CCCC[C@H]2C[C@@H]1N recorded_endpoint=pKa meas_value=9.93
compound=CC1=CC(C)=Nc2ccc(C)cc2N1 recorded_endpoint=pKa meas_value=3.5
compound="NCC(=O)N[C@@H](Cc1c[nH]cn1)C(=O)[O-] (H-Gly-His-OH)" recorded_endpoint=pKa meas_value=8.14
compound=Nc1ccncc1F recorded_endpoint=pKa meas_value=4.77
compound=COC(=O)c1cc(Br)c(=O)n(N)c1 recorded_endpoint=pKa meas_value=2.4
compound="NNC(=O)CC([NH2+]CCO)C(=O)[O-] (configuration not stated)" recorded_endpoint=pKa meas_value=2.13
compound="c1ccc2c(c1)CCC2N(c1ccc2ccccc2c1)C1CCc2ccccc21 (configuration not stated)" recorded_endpoint=pKa meas_value=0.25
compound=C=C(C)C(=O)OCCNC(C)C recorded_endpoint=pKa meas_value=9.13
compound="CC(Br)(CN)[N+](=O)[O-] (configuration not stated)" recorded_endpoint=pKa meas_value=6.15
compound=Cn1c[nH+]c2cccc(N)c21 recorded_endpoint=pKa meas_value=2.36
compound=CCCCCCCCCCCCCCCC[NH+](CCCCCCCCCCCCCCCC)CCCn1ccnc1 recorded_endpoint=pKa meas_value=4.4
compound="COc1ccc(C2NCCS2)cc1 (configuration not stated)" recorded_endpoint=pKa meas_value=5.45
compound=Oc1ccc(Cl)cc1CN1CCCC1 recorded_endpoint=pKa meas_value=11.7
compound="CCN(CC1CO1)CC1CO1 (configuration not stated)" recorded_endpoint=pKa meas_value=6.91
compound=Cc1cc(N)nc(C)n1 recorded_endpoint=pKa meas_value=6.85
compound=C[C@@H]1[C@@H](N)[C@H]1[NH3+] recorded_endpoint=pKa meas_value=4.35
compound=NCc1ccc(Cl)cc1 recorded_endpoint=pKa meas_value=9.24
compound=O=[N+]([O-])c1ccc([O-])c(CN2CCOCCOCCOCCOCC2)c1 recorded_endpoint=pKa meas_value=9.69
compound="CC(C)(S)C(C(=O)[O-])n1ccnc1Cc1ccccc1 (configuration not stated)" recorded_endpoint=pKa meas_value=7
compound=COC1=CC=C2[C@@H]3Cc4ccc(OC)c5c4[C@]2(CCN3C)[C@@H]1O5 recorded_endpoint=pKa meas_value=8.15
compound="NCC(=O)N1CCC[C@H]1C(=O)[O-] (H-Gly-Pro-OH)" recorded_endpoint=pKa meas_value=8.49
compound=CCCCCCCNc1ccccc1 recorded_endpoint=pKa meas_value=5.09
compound=CC(=O)N(C)c1ccncc1 recorded_endpoint=pKa meas_value=4.62
compound=Cc1ccnc([S-])[nH+]1 recorded_endpoint=pKa meas_value=2.2
compound=c1ccc2[nH+]c(-c3ccncc3)[nH]c2c1 recorded_endpoint=pKa meas_value=4.47
compound=Cc1ccc(N)cc1[N+](=O)[O-] recorded_endpoint=pKa meas_value=3
compound=Cn1ncc2c(N)ncnc21 recorded_endpoint=pKa meas_value=4.32
compound=CC12CN3CC(C)(C1)CC(C)(C3)C2 recorded_endpoint=pKa meas_value=10.7
compound=Cc1ccccc1/C(=N\CCCN(C)C)c1ccccc1-c1ccccc1 recorded_endpoint=pKa meas_value=9.25
compound=c1ccc2cc3ncccc3cc2c1 recorded_endpoint=pKa meas_value=4.92
compound=CC(C)[C@@H]1CC[C@@H](C)C[C@@H]1N recorded_endpoint=pKa meas_value=10.5
compound=c1ccc2c(c1)N1CCN2CC1 recorded_endpoint=pKa meas_value=5.65
compound=CCOc1ccc2[nH]c(CC(C)C)nc2c1 recorded_endpoint=pKa meas_value=6.07
compound=c1nc(NC2CCCCC2)c2ncn(C3CCCCC3)c2n1 recorded_endpoint=pKa meas_value=4.4
compound=CCN(C)N(CC)CC recorded_endpoint=pKa meas_value=7.3
compound=CC(C)CSC(=N)c1ccccc1 recorded_endpoint=pKa meas_value=8.22
compound=CN1CC1 recorded_endpoint=pKa meas_value=7.86
compound=N/C(Cc1ccccc1)=N\O recorded_endpoint=pKa meas_value=5.32
compound=COc1ncnc2nccnc12 recorded_endpoint=pKa meas_value=1.04
compound=O=C([O-])CCCCCN1CCCCC1 recorded_endpoint=pKa meas_value=10.5
compound=O/C(=C/c1ccncc1)c1ccccc1 recorded_endpoint=pKa meas_value=6.21
compound=Cc1cc(-c2ccccc2)nn(CCN2CCOCC2)c1=N recorded_endpoint=pKa meas_value=9.7
compound=OCCCCc1ccccn1 recorded_endpoint=pKa meas_value=5.83
compound=Cc1cnc2c(O)cccc2c1 recorded_endpoint=pKa meas_value=4.93
compound=Cc1cccc(/N=N/c2ccc(N(C)C)cc2)c1 recorded_endpoint=pKa meas_value=2.33
compound="CC(Cc1ccccc1)NCCC#N (configuration not stated)" recorded_endpoint=pKa meas_value=7.23
compound=Oc1ccccc1CN1CCOCC1 recorded_endpoint=pKa meas_value=7.71
